tested on: E. coli h38 humanized mutant ribosome RFP fluorescence, mixed culture, 24 h; experiment: growth inhibition of wild-type GFP E. coli, dose response, h38 mutant RFP, cherry-pick (AID 977622); details: h38 mutant RFP at 50 uM; at 50 µM
Among all 1,900 compounds or so, fewer than 10 were called active. Another 39% or so got no clear call; they are omitted. These entries were drawn from the full list.
Each record here notes measured activity change.
Please make sure the unit comes right after the number.

Compound	Reported Measurement
COc1ccc(NS(=O)(=O)c2ccc(Cl)c(NC(=O)c3ccccc3F)c2)cc1	-6.96%
NC(=O)C1CCN(c2cc(Cl)ccc2[N+](=O)[O-])CC1	-0.291%
COC(=O)c1cc2c(c3c4cc(F)ccc4n(S(=O)(=O)c4cccc(C)c4)c13)C(=O)N(Cc1ccco1)C2	17.4%
O=S(=O)(Cc1ccccc1)N1CCCCN2[C@@H](CO)[C@@H](c3ccc(-c4cccnc4)cc3)[C@@H]2C1	16.2%
Fc1cccc(Cc2c(-c3ccco3)nc3c4ccccc4ccn23)c1	15.9%
COc1ccc([C@H]2C[C@H](O)C[C@@H](CCn3cc(-c4ccccc4)nn3)O2)cc1	19.3%
O=C(NCc1nc2ccccc2[nH]1)c1ccc(S(=O)(=O)N2CCCC2)cc1	2.82%
CN(C)CCCN(C(=O)CCOc1ccccc1)c1nc2c(F)cccc2s1	-7.27%

Enquiry: Could you tell me which activity change is on file for COc1cc(-c2ccc(N3C(c4ccsc4)=Cc4ccc(F)cc4C3c3c[nH]c4ccc(C#N)cc34)cc2)cc(OC)c1OC (centres undefined) ?
Return: 8.77%

###

Each record here notes measured activity change.
test: growth inhibition of wild-type GFP E. coli, dose response, h38 mutant RFP, cherry-pick (AID 977622); details: 24 h; E. coli mixed culture, total growth OD600 at 50 uM, at 50 µM
The campaign covered roughly 1,900 compounds. Fewer than 10 were called active. Another 39% or so got no clear call; they are omitted. These entries were drawn from the full list.
// units = %; emit number, no label

COc1ccc(C)c2sc(N(CCN(C)C)C(=O)c3ccc(S(=O)(=O)N(C)c4ccccc4)cc3)nc12 -16.8

Enquiry: Could you tell me which activity change is on file for "COc1ccc(OC)c(NC(=O)COC(=O)CCNc2ccccc2OC)c1" ?
Return: -9.13

Enquiry: Could you tell me which activity change is on file for "CCOc1ncccc1C(=O)OCC(=O)NCCCc1ccccc1" ?
Return: -34.2

Enquiry: Could you tell me which activity change is on file for "COc1ccc([C@H]2C[C@H](O)C[C@@H](CCn3cc(-c4ccccc4)nn3)O2)cc1" ?
Return: -21.6

Enquiry: Could you tell me which activity change is on file for "COc1cccc(C(=O)c2c[nH]c(C(=O)NCc3cccnc3)c2)c1" ?
Return: -3.41
